# System: EKVX NSCLC
# experiment_summary: NCI tumour cell line growth inhibition, 48 h
So I've got a bunch of molecules here, and I need their TGI values.

molecule	TGI
COC(=O)C(=O)C(C#N)c1cccc2ccccc12 (stereo not given)	> 100 µM
CCSSCS(C)(=O)=O	> 100 µM
N#Cc1c(N)nn(C(=O)c2ccc(NC(=O)c3ccccn3)cc2)c1-c1ccc(Cl)cc1	> 100 µM
Cc1ccccc1N=C(N)NC#N	> 100 µM
Oc1nc(N/N=C/c2c[nH]c3ccccc23)[nH]c1/C=C1\C=Nc2ccccc21	89.6 µM
Nc1ccc2c(c1)C1Oc3ccccc3CC1CO2 (stereo not given)	> 100 µM

Could you tell me TGI for each of these molecules? They are listed below.
1. Cc1nc2c(cc1C(=O)NN)c(=O)n(C)c(=O)n2C
2. COC1CC(OC2OC(CO)C(O)C(O)C2O)/C(=C\C#N)C(O)C1OC (stereo not given)
3. COc1ccc(/C=N\N2CC(=O)N3C4C=CC(CC4)N3C2=O)cc1 (stereo not given)
4. COC(=O)C1Cc2c([nH]c3ccccc23)[C@H](CC(C)C)N1 (stereo not given in full)
5. CCc1nc(N)nc(N)c1-c1ccc(Cl)cc1

["> 100 µM", "> 100 µM", "> 100 µM", "> 100 µM", "> 100 µM"]

Attribution: PubChem BioAssay (NCI)
